experiment: CNS penetration: total and unbound drug concentrations in tumor regions, CSF and plasma (LC-MS/MS, equilibrium dialysis); settings: human, non-enhancing tumor / plasma, oral, 5 mg
recorded_metric: Kp at 120 h

- compound: "CO[C@H]1C[C@@H]2CC[C@@H](C)[C@@](O)(O2)C(=O)C(=O)N2CCCC[C@H]2C(=O)O[C@H]([C@H](C)C[C@@H]2CC[C@@H](OCCO)[C@H](OC)C2)CC(=O)[C@H](C)/C=C(\\C)[C@@H](O)[C@@H](OC)C(=O)[C@H](C)C[C@H](C)/C=C/C=C/C=C/1C [Everolimus, everolimus]"
  meas_value: 0.89

* * *

test: Plasma pharmacokinetic parameters (LC-MS/MS); details: human, plasma, oral, 60 mg, T1/2, total everolimus plasma; mean
recorded_metric: half-life (h)

- compound: "CO[C@H]1C[C@@H]2CC[C@@H](C)[C@@](O)(O2)C(=O)C(=O)N2CCCC[C@H]2C(=O)O[C@H]([C@H](C)C[C@@H]2CC[C@@H](OCCO)[C@H](OC)C2)CC(=O)[C@H](C)/C=C(\\C)[C@@H](O)[C@@H](OC)C(=O)[C@H](C)C[C@H](C)/C=C/C=C/C=C/1C [Everolimus, everolimus]"
  recorded_metric: "half-life"
  reading_unit: "h"
  meas_value: 19.7

* * *

experiment: Plasma pharmacokinetic parameters (LC-MS/MS); conditions: total everolimus plasma; dose 70 mg; individual patients
recorded_metric: Cmax (nM)

- substance_smiles: "CO[C@H]1C[C@@H]2CC[C@@H](C)[C@@](O)(O2)C(=O)C(=O)N2CCCC[C@H]2C(=O)O[C@H]([C@H](C)C[C@@H]2CC[C@@H](OCCO)[C@H](OC)C2)CC(=O)[C@H](C)/C=C(\\C)[C@@H](O)[C@@H](OC)C(=O)[C@H](C)C[C@H](C)/C=C/C=C/C=C/1C"
  recorded_metric: "Cmax"
  meas_value: 90

* * *

experiment: CNS penetration: total and unbound drug concentrations in tumor regions, CSF and plasma (LC-MS/MS, equilibrium dialysis); details: human, enhancing tumor, oral, Total everolimus, MAX, 5 mg QD 5 days
recorded_metric: concentration at 5 days (nM)

- substance_smiles: "CO[C@H]1C[C@@H]2CC[C@@H](C)[C@@](O)(O2)C(=O)C(=O)N2CCCC[C@H]2C(=O)O[C@H]([C@H](C)C[C@@H]2CC[C@@H](OCCO)[C@H](OC)C2)CC(=O)[C@H](C)/C=C(\\C)[C@@H](O)[C@@H](OC)C(=O)[C@H](C)C[C@H](C)/C=C/C=C/C=C/1C"
  recorded_metric: "concentration at 5 days"
  meas_value: 39.8

* * *

assay: CNS penetration: total and unbound drug concentrations in tumor regions, CSF and plasma (LC-MS/MS, equilibrium dialysis); details: human, enhancing tumor, oral, Total everolimus, MAX, 50 mg single dose

- substance_smiles: "CO[C@H]1C[C@@H]2CC[C@@H](C)[C@@](O)(O2)C(=O)C(=O)N2CCCC[C@H]2C(=O)O[C@H]([C@H](C)C[C@@H]2CC[C@@H](OCCO)[C@H](OC)C2)CC(=O)[C@H](C)/C=C(\\C)[C@@H](O)[C@@H](OC)C(=O)[C@H](C)C[C@H](C)/C=C/C=C/C=C/1C"
  reading_unit: "nM"
  concentration at 5 days: 74.1

* * *

assay: Plasma pharmacokinetic parameters (LC-MS/MS); details: human, plasma, oral, 400 mg, Unbound Ribociclib T1/2, plasma, Median

- substance_smiles: "CN(C)C(=O)c1cc2cnc(Nc3ccc(N4CCNCC4)cn3)nc2n1C1CCCC1"
  half-life / h: 11.2

* * *

experiment: CNS penetration: total and unbound drug concentrations in tumor regions, CSF and plasma (LC-MS/MS, equilibrium dialysis); conditions: human, enhancing tumor, oral, Total everolimus, MIN, 60 mg single dose
recorded_metric: concentration at 5 days (nM)

- molecule: "CO[C@H]1C[C@@H]2CC[C@@H](C)[C@@](O)(O2)C(=O)C(=O)N2CCCC[C@H]2C(=O)O[C@H]([C@H](C)C[C@@H]2CC[C@@H](OCCO)[C@H](OC)C2)CC(=O)[C@H](C)/C=C(\\C)[C@@H](O)[C@@H](OC)C(=O)[C@H](C)C[C@H](C)/C=C/C=C/C=C/1C [Everolimus, everolimus]"
  reading_unit: "nM"
  meas_value: 9.8

* * *

assay: CNS penetration: total and unbound drug concentrations in tumor regions, CSF and plasma (LC-MS/MS, equilibrium dialysis); conditions: human, CSF, oral, Total everolimus, MAX, 10 mg QD 5 days
recorded_metric: concentration at 5 days (nM)

- substance_smiles: "CO[C@H]1C[C@@H]2CC[C@@H](C)[C@@](O)(O2)C(=O)C(=O)N2CCCC[C@H]2C(=O)O[C@H]([C@H](C)C[C@@H]2CC[C@@H](OCCO)[C@H](OC)C2)CC(=O)[C@H](C)/C=C(\\C)[C@@H](O)[C@@H](OC)C(=O)[C@H](C)C[C@H](C)/C=C/C=C/C=C/1C"
  reading_unit: "nM"
  meas_value: 2.5

* * *

assay: CNS penetration: total and unbound drug concentrations in tumor regions, CSF and plasma (LC-MS/MS, equilibrium dialysis); details: human, non-enhancing tumor, oral, Total Ribociclib concentration, Minimum, 600 mg QD 5 days

- substance_smiles: "CN(C)C(=O)c1cc2cnc(Nc3ccc(N4CCNCC4)cn3)nc2n1C1CCCC1"
  reading_unit: "nM"
  concentration at 5 days: 1310

* * *

assay: Plasma pharmacokinetic parameters (LC-MS/MS); settings: human, plasma, oral, 2.5 mg, AUClast, total everolimus plasma; mean

- substance_smiles: "CO[C@H]1C[C@@H]2CC[C@@H](C)[C@@](O)(O2)C(=O)C(=O)N2CCCC[C@H]2C(=O)O[C@H]([C@H](C)C[C@@H]2CC[C@@H](OCCO)[C@H](OC)C2)CC(=O)[C@H](C)/C=C(\\C)[C@@H](O)[C@@H](OC)C(=O)[C@H](C)C[C@H](C)/C=C/C=C/C=C/1C"
  AUC(0-t) [µM·h]: 0.31

* * *

assay: CNS penetration: total and unbound drug concentrations in tumor regions, CSF and plasma (LC-MS/MS, equilibrium dialysis); details: human, enhancing tumor, oral, Total everolimus, MIN, 5 mg QD 5 days
recorded_metric: concentration at 5 days

- compound: "CO[C@H]1C[C@@H]2CC[C@@H](C)[C@@](O)(O2)C(=O)C(=O)N2CCCC[C@H]2C(=O)O[C@H]([C@H](C)C[C@@H]2CC[C@@H](OCCO)[C@H](OC)C2)CC(=O)[C@H](C)/C=C(\\C)[C@@H](O)[C@@H](OC)C(=O)[C@H](C)C[C@H](C)/C=C/C=C/C=C/1C [Everolimus, everolimus]"
  meas_value: "11.1 nM"

* * *

assay: CNS penetration: total and unbound drug concentrations in tumor regions, CSF and plasma (LC-MS/MS, equilibrium dialysis); conditions: human, non-enhancing tumor, oral, Unbound Ribociclib concentration, Minimum, 400 mg QD 5 days

- substance_smiles: "CN(C)C(=O)c1cc2cnc(Nc3ccc(N4CCNCC4)cn3)nc2n1C1CCCC1"
  concentration at 5 days / nM: 65

* * *

assay: Plasma pharmacokinetic parameters (LC-MS/MS); details: total everolimus plasma; dose 10 mg; mean

- compound: "CO[C@H]1C[C@@H]2CC[C@@H](C)[C@@](O)(O2)C(=O)C(=O)N2CCCC[C@H]2C(=O)O[C@H]([C@H](C)C[C@@H]2CC[C@@H](OCCO)[C@H](OC)C2)CC(=O)[C@H](C)/C=C(\\C)[C@@H](O)[C@@H](OC)C(=O)[C@H](C)C[C@H](C)/C=C/C=C/C=C/1C [Everolimus, everolimus]"
  reading_unit: "nM"
  Cmax: 90

* * *

experiment: CNS penetration: total and unbound drug concentrations in tumor regions, CSF and plasma (LC-MS/MS, equilibrium dialysis); conditions: human, enhancing tumor, oral, Unbound Ribociclib concentration, Maximum, 400 mg QD 5 days

- substance_smiles: "CN(C)C(=O)c1cc2cnc(Nc3ccc(N4CCNCC4)cn3)nc2n1C1CCCC1"
  reading_unit: "nM"
  concentration at 5 days: 1400

* * *

test: CNS penetration: total and unbound drug concentrations in tumor regions, CSF and plasma (LC-MS/MS, equilibrium dialysis); conditions: human, enhancing tumor / plasma, oral, 400 mg

- substance_smiles: "CN(C)C(=O)c1cc2cnc(Nc3ccc(N4CCNCC4)cn3)nc2n1C1CCCC1"
  Kp at 120 h: 12.9

* * *

assay: CNS penetration: total and unbound drug concentrations in tumor regions, CSF and plasma (LC-MS/MS, equilibrium dialysis); details: human, non-enhancing tumor, po, unbound drug concentration in the non-enhancing tumor regions, range, ribociclib 600 mg daily oral, 5 days;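 also: drug levels in patient tumor tissue from contrast-enhancing and non-enhancing regions sampled under MRI-guided neuronavigation, with plasma and CSF drawn during surgical resection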

- compound: "CN(C)C(=O)c1cc2cnc(Nc3ccc(N4CCNCC4)cn3)nc2n1C1CCCC1 [Ribociclib, ribociclib]"
  concentration at 5 days: "68 to 2340 nM"

* * *

assay: Plasma pharmacokinetic parameters (LC-MS/MS); settings: human, plasma, oral, 400 mg, Unbound Ribociclib T1/2, plasma, individual patients

- molecule: "CN(C)C(=O)c1cc2cnc(Nc3ccc(N4CCNCC4)cn3)nc2n1C1CCCC1 [Ribociclib, ribociclib]"
  half-life, h: 7.04
